# Test system: COLO 205 colon
# Assay Protocol: NCI tumour cell line growth inhibition, 48 h
TGI reference

Example cases with answers are listed next.
> print(dat)
                                   molecule  measured.value
1  O=S1(=O)C[C@@H](NCc2ccccc2)[C@H](NCc2ccccc2)C1        > 100 µM
2  COc1ccc(N2C(=O)C3c4[nH]c5ccccc5c4C4CCCCCCCCCC4C3C2=O)cc1 (stereo unspecified)         > 10 µM
3  Cc1nc(-c2cccnc2)sc1C(=O)/C=C/c1cccc([N+](=O)[O-])c1        > 100 µM
4  O=C1OC(c2ccccc2)N(C(=O)c2ccccc2)C1Cc1ccc(OCc2ccccc2)cc1 (stereo unspecified)        > 100 µM
5         O=[N+]([O-])c1cc(Cl)ccc1Sc1ccccc1        > 100 µM

Now for the molecule whose TGI we want.
// field: TGI; key: O=C1c2ccccc2-c2c1c1ccccc1c(=O)n2CCNCCn1c2c(c3ccccc3c1=O)C(=O)c1ccccc1-2 ; value = > 25 µM
